Values from BigSolDB 2.1

Conditions: in DMF, 283.15 K
Observed Property: solubility (mole fraction)
Numbers only.

Exercise: # input molecule: CC(C)C(=O)Nc1ccc([N+](=O)[O-])c(C(F)(F)F)c1 ; wanted: its solubility (mole fraction)
Solution: 0.391

###

Details: in ethyl acetate, 288.15 K
Observed Property: solubility (mole fraction)

Exercise: Item under review: CC(C)C(=O)Nc1ccc([N+](=O)[O-])c(C(F)(F)F)c1 . Reported solubility (mole fraction)?
Solution: 0.119

###

Details: in methyl acetate, 303.15 K
Observed Property: solubility (mole fraction)
Numbers only.

Exercise: // returns reported solubility (mole fraction) for input CC(C)C(=O)Nc1ccc([N+](=O)[O-])c(C(F)(F)F)c1
Solution: 0.144

###

Settings: in methanol, 308.15 K
Observed Property: solubility (mole fraction)
Give bare numbers.

Exercise: I'd like to know its solubility (mole fraction). The compound in question is CC(C)C(=O)Nc1ccc([N+](=O)[O-])c(C(F)(F)F)c1
Solution: 0.0933

###

Settings: in methyl acetate, 288.15 K
Observed Property: solubility (mole fraction)
Numbers only.

Exercise: Query (molecule): CC(C)C(=O)Nc1ccc([N+](=O)[O-])c(C(F)(F)F)c1 ; field requested: solubility (mole fraction)
Solution: 0.113

###

Conditions: in 2-ethoxyethanol, 323.15 K
Observed Property: solubility (mole fraction)
One number for each entry.

Exercise: Fill in: solubility (mole fraction) of CC(C)C(=O)Nc1ccc([N+](=O)[O-])c(C(F)(F)F)c1 is ___
Solution: 0.258

###

Settings: in dichloromethane, 278.15 K
Observed Property: solubility (mole fraction)
Give bare numbers.

Exercise: Fill in the blank: the reported solubility (mole fraction) of CC(C)C(=O)Nc1ccc([N+](=O)[O-])c(C(F)(F)F)c1 is ____.
Solution: 0.00732

###

Settings: in 2-methoxyethanol, 313.15 K
Observed Property: solubility (mole fraction)

Exercise: GET /values?readout=solubility (mole fraction)&item= CC(C)C(=O)Nc1ccc([N+](=O)[O-])c(C(F)(F)F)c1
Solution: 0.212

###

Conditions: in dichloromethane, 308.15 K
Observed Property: solubility (mole fraction)
One number for each entry.

Exercise: Which measured solubility (mole fraction) value corresponds to CC(C)C(=O)Nc1ccc([N+](=O)[O-])c(C(F)(F)F)c1 ?
Solution: 0.0273

###

Conditions: in DMSO, 308.15 K
Observed Property: solubility (mole fraction)

Exercise: Fill blank: measured solubility (mole fraction) of the molecule CC(C)C(=O)Nc1ccc([N+](=O)[O-])c(C(F)(F)F)c1 is ____.
Solution: 0.469

###

Settings: in ethyl acetate, 283.15 K
Observed Property: solubility (mole fraction)
Numbers only.

Exercise: Could you tell me which solubility (mole fraction) is on file for CC(C)C(=O)Nc1ccc([N+](=O)[O-])c(C(F)(F)F)c1 ?
Solution: 0.109
